Listed molecules paired with reported IC50
Tested on: Phosphorylated Ribosomal Protein S6 (RPS6) in THP-1 cells
Assay: THP-1 RPS6 ELISA assay
Assay type: cell-based, human
Settings: Homo sapiens, THP-1, THP-1 cells, 10 nM MCP-1; read-out: PI3Kγ_THP1_RPS6_ELISA IC50
Structures can show the parent of a compound that is named as a salt.

Example results:
molecule: CC1CCN(c2c(C(C)NC(=O)c3c(N)nn4cccnc34)cc(Cl)c3cncn23)CC1 (stereo not shown) [Example 69, bistrifluoroacetate]
target_or_test_system: Phosphorylated Ribosomal Protein S6 (RPS6) in THP-1 cells
IC50: < 1000 nM

molecule: CC(NC(=O)c1c(N)nn2cccnc12)c1cc(Cl)c2cncn2c1N1CCN(S(C)(=O)=O)CC1 (racemic) [Example 141, trifluoroacetate salt]
target_or_test_system: Phosphorylated Ribosomal Protein S6 (RPS6) in THP-1 cells
IC50: < 500 nM

molecule: Cc1nc(C(F)(F)F)c2c(Cl)cc(C(C)NC(=O)c3c(N)nn4cccnc34)c(-c3ccccc3)n12 (racemic) [Example 124, trifluoroacetate salt]
target_or_test_system: Phosphorylated Ribosomal Protein S6 (RPS6) in THP-1 cells
IC50: > 1000 nM

molecule: CC(NC(=O)c1c(N)nn2cccnc12)c1cc(Cl)c2cn[nH]c2c1OCC(O)CO (stereo not shown) [Example 85, trifluoroacetate]
target_or_test_system: Phosphorylated Ribosomal Protein S6 (RPS6) in THP-1 cells
IC50: < 500 nM

molecule: Cc1ncn2c(-c3cccnc3)c(C(C)NC(=O)c3c(N)nn4cccnc34)cc(Cl)c12 (racemic) [Example 129, trifluoroacetate salt]
target_or_test_system: Phosphorylated Ribosomal Protein S6 (RPS6) in THP-1 cells
IC50: < 1000 nM

molecule: CCOC(=O)C1CC=C(c2c(C(C)NC(=O)c3c(N)nn4cccnc34)cc(Cl)c3cn[nH]c23)CC1 (stereo not shown) [Example 97, bistrifluoroacetate]
target_or_test_system: Phosphorylated Ribosomal Protein S6 (RPS6) in THP-1 cells
IC50: < 1000 nM

molecule: CC(NC(=O)c1c(N)nn2cccnc12)c1cc(Cl)c2cncn2c1N1C[C@H](O)C[C@@H](O)C1 (mixture of isomers) [Example 155A, trifluoroacetate salt]
target_or_test_system: Phosphorylated Ribosomal Protein S6 (RPS6) in THP-1 cells
IC50: < 500 nM

molecule: Cc1ncc2c(Cl)cc(C(C)NC(=O)c3c(N)nn4cccnc34)c(-c3ccccc3)n12 (racemic) [Example 121, trifluoroacetate salt]
target_or_test_system: Phosphorylated Ribosomal Protein S6 (RPS6) in THP-1 cells
IC50: < 500 nM

molecule: CC(NC(=O)c1c(N)nn2cccnc12)c1cc(Cl)c2cn[nH]c2c1N1CCC(O)C1 (racemic) [Example 90A, bis(trifluoroacetate)]
target_or_test_system: Phosphorylated Ribosomal Protein S6 (RPS6) in THP-1 cells
IC50: < 500 nM

molecule: CC(NC(=O)c1c(N)nn2cccnc12)c1cc(Cl)c2c(Cl)ncn2c1N1CCC(C#N)CC1 (racemic) [Example 163, trifluoroacetate salt]
target_or_test_system: Phosphorylated Ribosomal Protein S6 (RPS6) in THP-1 cells
IC50: < 500 nM

Exam item: State the recorded IC50 for this entry: CC(NC(=O)c1c(N)nn2cccnc12)c1cc(Cl)c2cncn2c1N1CCCC(O)(C(F)(F)F)C1 (single isomer, unassigned) [Example 78A, trifluoroacetate]
Marked response: < 500 nM

Exam item: State the recorded IC50 for this entry: CC(NC(=O)c1c(N)nn2cccnc12)c1cc(Cl)c2cncn2c1N1CCC2(CC1)COC(=O)N2 (stereo not shown) [Example 79, trifluoroacetate]
Marked response: > 1000 nM

Exam item: State the recorded IC50 for this entry: CCOc1c(C(C)NC(=O)c2c(N)nn3cccnc23)cc(Cl)c2c(C#N)n[nH]c12 (stereo not shown) [Example 86, trifluoroacetate]
Marked response: > 1000 nM
